Reported endpoint: melting point

The cases that follow already have their melting point on record.
{"Smiles data": "O=C(c1ccc(Cl)cc1)c1c[nH]cc1-c1cccc2ccccc12", "melting point": "285 to 286 °C"}
{"Smiles data": "O=C(c1cccs1)c1c[nH]cc1-c1ccc(OCc2ccc(Br)cc2)cc1", "melting point": "233 to 235 °C"}
{"Smiles data": "O=C(C=Cc1ccc(OCc2ccc(Br)cc2)cc1)c1cccs1", "melting point": "141 to 143 °C"}
{"Smiles data": "CN(C)c1ccc(/C=C/c2c[nH]cc2C(=O)c2ccccc2)cc1", "melting point": "219 to 220 °C"}

# evaluate next
Task item: Would you mind telling me what melting point value was observed for `O=C(c1cccs1)c1c[nH]cc1-c1cccc(Oc2ccccc2)c1` ?
Reply: 165 to 166 °C

Just for reference, paper PMC6332026 is where these values come from.
